B1: SOAT1 (parent)
chain: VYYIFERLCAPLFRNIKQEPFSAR

Variants of: B1
Test: protein stability index of a GFP-peptide fusion (GPS, HEK-293T) (PSI 1-6); higher = more stable;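 note: lentivirally expressed fusions sorted by FACS into six bins by GFP to DsRed ratio, PSI derived from sequencing read proportions per bin multiplied by bin number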
Details: c terminus: a fixed tail appended
Can you tell me protein stability index for the items I'm about to list?
Give bare numbers.

| mutant | protein stability index |
| --- | --- |
| E19I | 2.6 |

Take each entry in turn and give its protein stability index.
1. I4K
2. P20I

### Response
1. 2.81
2. 2.71
